Data origin: patent US20110206660A1

Some binders, each annotated with its measured pKi.
STUDY_SYSTEM: T1, human CXCR4 (human, UniProt P61073-2 2-356)
T1 construct: phage ELISA on CHO-CXCR4 membranes; chemotaxis with Jurkat cells that express CXCR4 endogenously; also called hCXCR4; SDF-1 receptor
T1 sequence (P61073 other isoform, or with tags, fused parts or gaps): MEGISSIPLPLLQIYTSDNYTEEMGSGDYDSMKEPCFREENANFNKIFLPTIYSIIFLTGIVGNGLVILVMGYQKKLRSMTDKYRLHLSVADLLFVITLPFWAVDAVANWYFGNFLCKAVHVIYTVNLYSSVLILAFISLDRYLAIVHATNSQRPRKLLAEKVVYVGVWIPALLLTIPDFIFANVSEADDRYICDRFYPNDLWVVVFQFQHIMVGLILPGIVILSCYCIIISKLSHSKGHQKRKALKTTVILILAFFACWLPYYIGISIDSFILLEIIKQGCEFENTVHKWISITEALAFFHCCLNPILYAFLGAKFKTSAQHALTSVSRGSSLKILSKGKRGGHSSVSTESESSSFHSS
EXPERIMENT: competition binding vs [125I]-238D4, HEK293T-CXCR4 membranes; purified Nanobody up to 0.5 µM, tracer [125I]-238D4

{"columns": ["BINDER", "pKi"],
 "data": [
  ["Nanobody 237D2 (VHH, Monovalent VHH; also called 237B6, A5, D2, D3, E4, F4, G2, G4, xH5, 237F1, C5, G1) VHH: EVQLVESGGGLVQPGGSLRLSCAASGFTFDDYAMSWVRQAPGKGLEWVSAISWNGGSTDYADSVKGRFTISRDNAKNTLYLQMNSLKSEDTAEYYCARDQGPFYSGTYYYTRQYGYRGQGTQVTVSS", "< 6.3"],
  ["Nanobody 237A6 (VHH, Monovalent VHH) VHH: EVQLVESGGGLVQAGGSLRLSCAASGSIFSLNAMGWYRQAPGKQRELVAGITSSTSTYYADSVKGRFTISRDNTKNTVYLQMNSLKPEDTAVYYCNVDCPDYYSDYECPLEDRGQGTQVTVSS", "< 6.3"],
  ["Nanobody 237D1 (VHH, Monovalent VHH) VHH: EVQLVESGGGLAQPGGPLRLTCEASGVIYSVNDMGWYRQAPGKQRELVAVITSGGGTNYVDSVKGRFTISGDNRKKTVYLQMNSLKPEDTAVYYCSIYYSSGISTLRSWGQGTQVTVSS", "< 6.3"]
]}

With those in mind, consider the next binder.
Memo: Nanobody 237G7 (VHH, Monovalent VHH) VHH: EVQLVESGGGLVQPGGSLRLSCAASSFIGNYHAIVWLRQAPGKELEGVSCITSRDSITYYASFVKGRFTISRDDAKNTVYLQMNNLKPEDTAVYYCAVBTSMTCPTLIVRFNYRGQGTQVTVSS , reported pKi: < 6.3
